Molecular target: SIX1-Q177R homeodomain (human, UniProt Q15475 108-198, Q177R)
Sequence: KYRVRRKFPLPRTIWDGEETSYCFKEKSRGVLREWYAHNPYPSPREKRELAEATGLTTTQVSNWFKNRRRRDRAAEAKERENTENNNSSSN
Test: universal protein binding microarray; Universal all-10-mer PBM (8x60K, AMADID 030236), 300 nM GST-tagged protein, Alexa Fluor 488 anti-GST; buffer, salt, pH and temperature not stated (as in Berger); high values mean tight binding
Conditions: protein: ivt; tags: N-terminal GST; dsDNA, one strand shown
In all, about 33,000 sequences were measured (“e-score”: median about -0.05, highest 2% from about 0.38 on). For the sample, the highest values were picked, then their nearest neighbours and some sequences at random.
The threshold is inclusive: binding signal of exactly 0.3 E-score counts as yes; values below receive no.

Some entries whose results are on file:
{"input.sequence": "CACCGATG", "discrete.label": "yes"}
{"input.sequence": "ACACATAG", "discrete.label": "no"}
{"input.sequence": "ACTGTGCA", "discrete.label": "no"}
{"input.sequence": "AACCTACA", "discrete.label": "no"}
{"input.sequence": "ACACAAGG", "discrete.label": "no"}
{"input.sequence": "AGACACCC", "discrete.label": "yes"}
{"input.sequence": "CGTGGTGC", "discrete.label": "no"}
{"input.sequence": "GGATACAC", "discrete.label": "yes"}

Q: Record GGATACAA ; criterion: binding signal no lower than 0.3 E-score. Met?
Ans: no

Q: What do we get for CTCAGACA ?
Ans: no

Q: Now the same for AACAACAC
Ans: yes

Q: How about this sequence: AGTCACAC
Ans: yes

Q: What about CCGGATCG ?
Ans: no

Q: Try this sequence too: CACACTTC
Ans: no
